# system: Plasma kallikrein (Homo sapiens, UniProt P03952)
# Sequence (P03952 20-390 limits assumed): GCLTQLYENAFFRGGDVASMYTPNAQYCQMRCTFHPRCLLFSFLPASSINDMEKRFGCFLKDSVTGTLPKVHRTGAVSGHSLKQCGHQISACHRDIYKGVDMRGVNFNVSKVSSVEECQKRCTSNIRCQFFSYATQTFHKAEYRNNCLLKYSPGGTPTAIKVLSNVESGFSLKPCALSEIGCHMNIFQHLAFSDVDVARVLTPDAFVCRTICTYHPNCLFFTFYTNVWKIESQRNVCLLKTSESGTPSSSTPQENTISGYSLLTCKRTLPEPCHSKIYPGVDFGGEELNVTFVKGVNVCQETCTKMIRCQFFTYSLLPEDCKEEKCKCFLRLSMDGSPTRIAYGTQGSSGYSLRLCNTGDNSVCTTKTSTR
# Sequence (P03952 391-638 limits assumed): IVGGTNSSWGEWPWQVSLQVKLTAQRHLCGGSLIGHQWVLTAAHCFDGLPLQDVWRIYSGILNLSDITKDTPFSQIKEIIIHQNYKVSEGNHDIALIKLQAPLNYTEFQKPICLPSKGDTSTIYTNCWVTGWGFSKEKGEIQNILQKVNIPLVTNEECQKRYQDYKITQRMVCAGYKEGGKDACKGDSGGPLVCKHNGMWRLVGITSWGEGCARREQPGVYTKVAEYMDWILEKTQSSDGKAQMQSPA
# testName: Inhibitory activity of compound against human plasma Kallikrein (PK)
quantityKind: Ki
Mention the unit after the number when you answer.

compound: CC(C)(C)[C@@H](NC(=O)N1CCOCC1)C(=O)N[C@@H](Cc1ccccc1)C(=O)NC(Cc1ccc(NC(=N)N)cc1)C(=O)C(F)(F)F (some centres not stated)
reading: 28 nM

compound: CC(C)(C)[C@@H](NC(=O)N1CCOCC1)C(=O)NCC(=O)NC(Cc1ccc(NC(=N)N)cc1)C(=O)C(F)(F)F (some centres not stated)
reading: 15500 nM

compound: CC(C)(C)OC(=O)N[C@H](Cc1ccccc1)C(=O)N[C@H](C(=O)NC(Cc1ccc(NC(=N)N)cc1)C(=O)C(F)(F)F)c1ccc2ccccc2c1 (some centres not stated)
reading: 89 nM

compound: CC(C)[C@@H](NC(=O)OC12CC3CC(CC(C3)C1)C2)C(=O)N[C@@H](Cc1ccccc1)C(=O)NC(Cc1ccc(NC(=N)N)cc1)C(=O)C(F)(F)F (some centres not stated)
reading: 5 nM

compound: CC(C)(C)[C@@H](NC(=O)OC12CC3CC(CC(C3)C1)C2)C(=O)N[C@H](C(=O)NC(Cc1ccc(NC(=N)N)cc1)C(=O)C(F)(F)F)c1ccc2ccccc2c1 (some centres not stated)
reading: 500 nM

Asked: Ki lookup needed for CC(C)(C)[C@@H](NC(=O)OC12CC3CC(CC(C3)C1)C2)C(=O)N[C@@H](Cc1ccccc1)C(=O)NC(Cc1ccc(NC(=N)N)cc1)C(=O)C(F)(F)F (some centres not stated) , thanks.
Given back: 2 nM

Asked: Please give the result for N=C(N)Nc1ccc(CC(NC(=O)[C@H](Cc2ccccc2)NC(=O)[C@@H](CCc2ccccc2)NC(=O)OC23CC4CC(CC(C4)C2)C3)C(=O)C(F)(F)F)cc1 (some centres not stated) too.
Given back: 4 nM

###

pKi tested on Kallikrein-1 (Homo sapiens): recorded values
Sequence (P06870 whole entry): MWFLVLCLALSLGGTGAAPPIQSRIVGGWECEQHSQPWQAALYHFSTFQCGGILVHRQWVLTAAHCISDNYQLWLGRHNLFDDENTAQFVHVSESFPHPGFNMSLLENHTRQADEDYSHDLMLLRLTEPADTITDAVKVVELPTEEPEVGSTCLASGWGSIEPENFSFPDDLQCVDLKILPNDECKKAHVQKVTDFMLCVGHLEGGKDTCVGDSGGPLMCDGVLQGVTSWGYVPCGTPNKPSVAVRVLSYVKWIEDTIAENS
pKi is a log-scale quantity: -log10 of the concentration expressed in molar.

compound: CC(C)(C)[C@@H](NC(=O)OC12CC3CC(CC(C3)C1)C2)C(=O)N[C@@H](Cc1ccccc1)C(=O)NC(Cc1ccc(NC(=N)N)cc1)C(=O)C(F)(F)F (some centres not stated)
reading: 4.33

With those in mind, consider the next compound.
Asked: # lookup: pKi of CC(C)[C@@H](NC(=O)OC12CC3CC(CC(C3)C1)C2)C(=O)N[C@@H](Cc1ccccc1)C(=O)NC(Cc1ccc(NC(=N)N)cc1)C(=O)C(F)(F)F (some centres not stated)
Given back: 3.72

Measured values drawn from ChEMBL document CHEMBL1131912 for this set.
